Test system: carrageenan-induced rat paw edema
Test name: carrageenan-induced rat paw edema test
Format: in vivo
Condition parameters: rats, 10 mg/kg intraperitoneally, 4 h after carrageenan; indomethacin = 100
Listed below: % Activity relative to indomethacine values for each entry.
Metric name: % Activity relative to indomethacine (%)

{"Compound": "COc1ccc2c(c1)c(CC(=O)O)c(C)n2C(=O)c1ccc(Cl)cc1 [Indomethacin, reference compound]", "Target entity": "carrageenan-induced rat paw edema", "Metric name": "% Activity relative to indomethacine", "Unit annotation": "%", "Result": 100.0}
{"Compound": "Cc1nc2c(cnn2-c2ccccc2)c(=O)n1N1C(=O)CSC1c1ccc(Cl)cc1 (centres unmarked)", "Target entity": "carrageenan-induced rat paw edema", "Metric name": "% Activity relative to indomethacine", "Unit annotation": "%", "Result": 59.81}
{"Compound": "Cc1nc2c(cnn2-c2ccccc2)c(=O)n1N=c1scc(-c2ccc(Br)cc2)n1-c1ccc(Cl)cc1 [Compound 11e]", "Target entity": "carrageenan-induced rat paw edema", "Metric name": "% Activity relative to indomethacine", "Unit annotation": "%", "Result": 98.14}
{"Compound": "Cc1nc2c(cnn2-c2ccccc2)c(=O)n1N=Cc1ccccc1", "Target entity": "carrageenan-induced rat paw edema", "Metric name": "% Activity relative to indomethacine", "Unit annotation": "%", "Result": 50.46}
{"Compound": "Cc1nc2c(cnn2-c2ccccc2)c(=O)n1N1C(=O)CC(=O)N(c2ccc(Cl)cc2)C1=S [Compound 12b]", "Target entity": "carrageenan-induced rat paw edema", "Metric name": "% Activity relative to indomethacine", "Unit annotation": "%", "Result": 67.29}
{"Compound": "O=c1c2cnn(-c3ccccc3)c2nc2cc3c(nn12)CCCC3", "Target entity": "carrageenan-induced rat paw edema", "Metric name": "% Activity relative to indomethacine", "Unit annotation": "%", "Result": 43.93}
{"Compound": "Cc1nc2c(cnn2-c2ccccc2)c(=O)n1N=c1scc(-c2ccccc2)n1-c1ccccc1 [Compound 11a]", "Target entity": "carrageenan-induced rat paw edema", "Metric name": "% Activity relative to indomethacine", "Unit annotation": "%", "Result": 78.50}
{"Compound": "Cc1nc2c(cnn2-c2ccccc2)c(=O)n1N=c1scc(-c2ccc(Cl)cc2)n1-c1ccc(Cl)cc1 [Compound 11f]", "Target entity": "carrageenan-induced rat paw edema", "Metric name": "% Activity relative to indomethacine", "Unit annotation": "%", "Result": 95.33}
{"Compound": "Cc1nc2c(cnn2-c2ccccc2)c(=O)n1N=c1scc(-c2ccccc2)n1-c1ccc(Cl)cc1 [Compound 11d]", "Target entity": "carrageenan-induced rat paw edema", "Metric name": "% Activity relative to indomethacine", "Unit annotation": "%", "Result": 83.18}
{"Compound": "Nn1c(C=O)nc2c(cnn2-c2ccccc2)c1=O", "Target entity": "carrageenan-induced rat paw edema", "Metric name": "% Activity relative to indomethacine", "Unit annotation": "%", "Result": 57.95}
{"Compound": "Cc1nc2c(cnn2-c2ccccc2)c(=O)n1N=c1scc(-c2ccc(Br)cc2)n1-c1ccccc1 [Compound 11b]", "Target entity": "carrageenan-induced rat paw edema", "Metric name": "% Activity relative to indomethacine", "Unit annotation": "%", "Result": 84.11}
{"Compound": "Cc1nc2c(cnn2-c2ccccc2)c(=O)n1NC(=S)Nc1ccccc1", "Target entity": "carrageenan-induced rat paw edema", "Metric name": "% Activity relative to indomethacine", "Unit annotation": "%", "Result": 62.63}
{"Compound": "Cc1nc2c(cnn2-c2ccccc2)c(=O)n1N", "Target entity": "carrageenan-induced rat paw edema", "Metric name": "% Activity relative to indomethacine", "Unit annotation": "%", "Result": 48.60}
{"Compound": "Cc1nc2c(cnn2-c2ccccc2)c(=O)n1N=C1SCC(=O)N1c1ccc(Cl)cc1 [Compound 10b]", "Target entity": "carrageenan-induced rat paw edema", "Metric name": "% Activity relative to indomethacine", "Unit annotation": "%", "Result": 85.99}
{"Compound": "O=c1c2cnn(-c3ccccc3)c2nc2ccc(-c3ccccc3)nn12", "Target entity": "carrageenan-induced rat paw edema", "Metric name": "% Activity relative to indomethacine", "Unit annotation": "%", "Result": 41.13}
{"Compound": "Cc1nc2c(cnn2-c2ccccc2)c(=O)n1N=C1SCC(=O)N1c1ccccc1 [Compound 10a]", "Target entity": "carrageenan-induced rat paw edema", "Metric name": "% Activity relative to indomethacine", "Unit annotation": "%", "Result": 76.64}
{"Compound": "Cc1nc2c(cnn2-c2ccccc2)c(=O)n1NC(=S)Nc1ccc(Cl)cc1", "Target entity": "carrageenan-induced rat paw edema", "Metric name": "% Activity relative to indomethacine", "Unit annotation": "%", "Result": 70.10}
